Numbers sourced from BindingDB's records for doi:10.1016/j.bmcl.2005.05.131.

Target: Cyclin-dependent kinase 4/G1/S-specific cyclin-D1 [L188C] (Homo sapiens)
Quick reference for log10(IC50) among some compounds
ENDPOINT NAME: log10(IC50) (log10 of the value in nM)

COMPOUND: COc1ccc2cnc(Nc3ccc(N4CCCC4)cc3)nc2c1C(C)C
log10(IC50): 2.75

COMPOUND: COc1ccc2cnc(Nc3ccc(N4CCNCC4)cc3)nc2c1C(C)C
log10(IC50): 1.20

COMPOUND: COc1ccc2cnc(Nc3ccc(N4CCOCC4)cc3)nc2c1C(C)C
log10(IC50): 1.72

COMPOUND: COc1ccc2cnc(Nc3ccccc3)nc2c1C(C)C
log10(IC50): 2.10

COMPOUND: COc1ccc2cnc(Nc3ccc(N4CCC(N)C4)cc3)nc2c1C(C)C (configuration not stated)
log10(IC50): 1.04

COMPOUND: COc1ccc2cnc(Nc3ccc(N4CCCCC4)cc3)nc2c1C(C)C
log10(IC50): 1.72

COMPOUND: COc1ccc2cnc(Nc3ccc(N4CCN(C(C)=O)CC4)cc3)nc2c1C(C)C
log10(IC50): 1.40

====

Molecular target: Cyclin-dependent kinase 4/G1/S-specific cyclin-D1 [L188C] (Homo sapiens)
Assay: CDKs Assay
pIC50: −log10 of the molar value.
Quick reference for pIC50 among some molecules
ENDPOINT NAME: pIC50

MOLECULE: COc1ccc2cnc(Nc3ccc(N4CCOCC4)cc3)nc2c1C1CCCC1
ENDPOINT NAME: pIC50
VALUE MEASURED: 7.74
//
MOLECULE: COc1ccc2cnc(Nc3ccc(N4CCNCC4)c(F)c3)nc2c1C1CCCC1
ENDPOINT NAME: pIC50
VALUE MEASURED: 8.40
//
MOLECULE: COc1ccc2cnc(Nc3ccc(N4CCCC4)cc3)nc2c1C1CCCC1
ENDPOINT NAME: pIC50
VALUE MEASURED: 5.76
//
MOLECULE: COc1ccc2cnc(Nc3ccc(N4CCCCC4)cc3)nc2c1C1CCCC1
ENDPOINT NAME: pIC50
VALUE MEASURED: 7.96
//
MOLECULE: COc1ccc2cnc(Nc3ccc(N4CCN(C(=O)CN)CC4)cc3)nc2c1C1CCCC1
ENDPOINT NAME: pIC50
VALUE MEASURED: 8.70
//
MOLECULE: COc1ccc2cnc(Nc3ccc(N4CCN(C(=O)CN)CC4)cc3)nc2c1C(C)C
ENDPOINT NAME: pIC50
VALUE MEASURED: 8.00
//
MOLECULE: COc1ccc2cnc(Nc3ccc(N4CCC(N)C4)cc3)nc2c1C1CCCC1 (stereo not given)
ENDPOINT NAME: pIC50
VALUE MEASURED: 6.94
//
MOLECULE: CC(C)c1c(O)ccc2cnc(Nc3ccccc3)nc12
ENDPOINT NAME: pIC50
VALUE MEASURED: 6.49
//
MOLECULE: COc1ccc2cnc(Nc3ccc(N4CCN(C(C)=O)CC4)cc3)nc2c1C1CCCC1
ENDPOINT NAME: pIC50
VALUE MEASURED: 8.70
//
MOLECULE: COc1ccc2cnc(Nc3ccc(N4CCNCC4)cc3)nc2c1C1CCCC1
ENDPOINT NAME: pIC50
VALUE MEASURED: 9.00
